Values were extracted from ChEMBL document CHEMBL4138104.

Please respond with reported GI50 for every item in the list.
- Test system: RPMI-8226
- Measurement notes: Growth inhibition of human RPMI8226 cells incubated for 48 hrs by sulforhodamine B assay
- Type: functional
- Test context: RPMI-8226, 48 h
Respond with the bare value in nM.

**Query** I am curious: what GI50 value has been reported for "C=C1C(=O)O[C@@H]2[C@H]3O[C@]3(C)CC/C=C(/COC(=O)c3cc4ccccc4o3)CC[C@@H]12" ?
**Result** 710

**Query** Looking for the measured GI50 of "C=C1C(=O)O[C@@H]2[C@H]3O[C@]3(C)CC/C=C(/COC(=O)CCCc3c[nH]c4ccccc34)CC[C@@H]12" , can you help?
**Result** 2310

**Query** Give its GI50 value. Item: "C=C1C(=O)O[C@@H]2[C@H]3O[C@]3(C)CC/C=C(/COC(=O)c3c[nH]c4ccccc34)CC[C@@H]12"
**Result** 40

**Query** Please report the recorded GI50 for CN(C)CC1C(=O)O[C@@H]2[C@H]3O[C@]3(C)CC/C=C(/COC(=O)c3cc4ccccc4[nH]3)CC[C@@H]12.O=C(O)/C=C/C(=O)O (some centres not stated) .
**Result** 280

**Query** What value of measured GI50 is listed for "C=C1C(=O)O[C@@H]2[C@H]3O[C@]3(C)CC/C=C(/COC(=O)c3cc4cc(OC)ccc4[nH]3)CC[C@@H]12" ?
**Result** 500

**Query** Which GI50 value is on record for "C=C1C(=O)O[C@@H]2[C@H]3O[C@]3(C)CC/C=C(/COC(=O)c3cn(C)c4ccccc34)CC[C@@H]12" ?
**Result** 210

**Query** Can you share its GI50? I mean this molecule: "C=C1C(=O)O[C@@H]2[C@H]3O[C@]3(C)CC/C=C(/COC(=O)c3cc4cc(Cl)ccc4[nH]3)CC[C@@H]12"
**Result** 810
